- measurement.target: hEP3-9 (Homo sapiens, UniProt P43115)
- Sequence (P43115 1-365 isoform P43115-3): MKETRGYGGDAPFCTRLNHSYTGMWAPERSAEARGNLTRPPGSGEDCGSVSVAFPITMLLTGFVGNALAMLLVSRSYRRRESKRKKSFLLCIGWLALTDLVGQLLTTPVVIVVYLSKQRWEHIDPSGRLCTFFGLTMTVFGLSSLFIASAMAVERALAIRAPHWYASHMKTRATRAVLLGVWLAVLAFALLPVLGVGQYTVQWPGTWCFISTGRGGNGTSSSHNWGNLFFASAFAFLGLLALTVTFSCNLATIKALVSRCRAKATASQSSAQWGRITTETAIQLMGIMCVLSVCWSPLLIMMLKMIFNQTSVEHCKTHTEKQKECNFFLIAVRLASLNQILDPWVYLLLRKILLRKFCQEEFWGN

[
  {
    "input.smiles": "CCCCC[C@H](O)/C=C/[C@H]1[C@H](O)CC(=O)[C@@H]1CCCCCCC(=O)O",
    "IC50": "~1 nM"
  }
]
